Mu-type opioid receptor (Rattus norvegicus, UniProt P33535): recorded Ki for assorted compounds
Sequence (P33535 whole entry): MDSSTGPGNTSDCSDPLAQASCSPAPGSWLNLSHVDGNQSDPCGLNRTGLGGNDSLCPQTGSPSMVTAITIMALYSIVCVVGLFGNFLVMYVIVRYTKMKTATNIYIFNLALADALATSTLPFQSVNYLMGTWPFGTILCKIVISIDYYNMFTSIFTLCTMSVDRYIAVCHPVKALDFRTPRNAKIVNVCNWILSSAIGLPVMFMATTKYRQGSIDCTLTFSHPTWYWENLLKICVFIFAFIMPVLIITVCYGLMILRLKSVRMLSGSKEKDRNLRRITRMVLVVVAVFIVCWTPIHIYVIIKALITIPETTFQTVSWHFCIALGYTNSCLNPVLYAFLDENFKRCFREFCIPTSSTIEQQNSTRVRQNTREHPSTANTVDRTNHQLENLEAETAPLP
Where a SMILES comes first, the peptide text is derived from it.
Unit nM implied. Number only.

Below: 3 compounds and their reported Ki.
In [3]: df
Out[3]:
                                   compound  result_number
0  NC(=O)[C@@H]1CC(F)(F)CN1C(=O)[C@H](Cc1ccccc1)NC(=O)[C@@H]1CC(F)(F)CN1C(=O)[C@@H](N)Cc1ccc(O)cc1            106
1  NC(=O)[C@H]1CC(F)(F)CN1C(=O)[C@H](Cc1ccccc1)NC(=O)[C@@H]1CC(F)(F)CN1C(=O)[C@@H](N)Cc1ccc(O)cc1           0.37
2  NC(=O)[C@H]1CC(F)(F)CN1C(=O)[C@H](Cc1ccccc1)NC(=O)[C@@H]1CCCN1C(=O)[C@@H](N)Cc1ccc(O)cc1           13.3

Incoming: Test system Mu-type opioid receptor (Rattus norvegicus, UniProt P33535); read-out Ki; what value for NC(=O)[C@@H]1CCCN1C(=O)[C@H](Cc1ccccc1)NC(=O)[C@@H]1CCCN1C(=O)[C@@H](N)Cc1ccc(O)cc1 [MORPHICEPTIN] (H-YPFP-NH2) ?
Outgoing: 36.4

---

molecular target: Mu-type opioid receptor (Homo sapiens, UniProt P35372); test: Agonist activity at human recombinant MOR expressed in CHO cells by calcium mobilization assay
Sequence (P35372 whole entry): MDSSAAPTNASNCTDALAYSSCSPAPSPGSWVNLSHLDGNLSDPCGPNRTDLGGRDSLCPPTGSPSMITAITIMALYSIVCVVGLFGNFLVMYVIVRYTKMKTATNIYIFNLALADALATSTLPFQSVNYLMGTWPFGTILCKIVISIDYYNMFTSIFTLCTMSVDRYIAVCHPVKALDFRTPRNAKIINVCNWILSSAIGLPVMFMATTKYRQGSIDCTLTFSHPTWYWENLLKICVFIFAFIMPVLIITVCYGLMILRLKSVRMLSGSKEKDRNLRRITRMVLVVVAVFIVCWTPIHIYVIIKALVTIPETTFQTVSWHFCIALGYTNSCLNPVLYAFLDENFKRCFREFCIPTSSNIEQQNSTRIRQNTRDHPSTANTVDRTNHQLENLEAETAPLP
Where a SMILES comes first, the peptide text is derived from it.
readout label: EC50 (nM)
Unit nM implied. Number only.

>>> df
                                   molecule  measure_unit  result_number
0  NC(=O)[C@@H]1CCCN1C(=O)[C@H](Cc1ccccc1)NC(=O)[C@@H]1CCCN1C(=O)[C@@H](N)Cc1ccc(O)cc1 [MORPHICEPTIN] (H-YPFP-NH2)            nM            741
1  NC(=O)[C@H]1CC(F)(F)CN1C(=O)[C@H](Cc1ccccc1)NC(=O)[C@@H]1CC(F)(F)CN1C(=O)[C@@H](N)Cc1ccc(O)cc1            nM           4.68

Incoming: Test system Mu-type opioid receptor (Homo sapiens, UniProt P35372); read-out EC50; what value for NC(=O)[C@@H]1CC(F)(F)CN1C(=O)[C@H](Cc1ccccc1)NC(=O)[C@@H]1CC(F)(F)CN1C(=O)[C@@H](N)Cc1ccc(O)cc1 ?
Outgoing: 398

Incoming: Test system Mu-type opioid receptor (Homo sapiens, UniProt P35372); read-out EC50; what value for NC(=O)[C@H]1CC(F)(F)CN1C(=O)[C@H](Cc1ccccc1)NC(=O)[C@@H]1CCCN1C(=O)[C@@H](N)Cc1ccc(O)cc1 ?
Outgoing: 20.4

---

assay: Retention time of compound by RP-HPLC analysis; format: physicochemical
readout label: Retention_time (min)
Unit min implied. Number only.

>>> print(df.to_string())
                                   compound   readout_label  measure_unit  result_number
0  NC(=O)[C@@H]1CCCN1C(=O)[C@H](Cc1ccccc1)NC(=O)[C@H]1CC(F)(F)CN1C(=O)[C@@H](N)Cc1ccc(O)cc1  Retention_time           min           14.1
1  NC(=O)[C@H]1CC(F)(F)CN1C(=O)[C@H](Cc1ccccc1)NC(=O)[C@@H]1CC(F)(F)CN1C(=O)[C@@H](N)Cc1ccc(O)cc1  Retention_time           min          14.99
2  NC(=O)[C@H]1CC(F)(F)CN1C(=O)[C@H](Cc1ccccc1)NC(=O)[C@@H]1CCCN1C(=O)[C@@H](N)Cc1ccc(O)cc1  Retention_time           min          14.22

Below: the item to evaluate.
Incoming: So what's the measured Retention_time for this one? NC(=O)[C@@H]1CC(F)(F)CN1C(=O)[C@H](Cc1ccccc1)NC(=O)[C@@H]1CC(F)(F)CN1C(=O)[C@@H](N)Cc1ccc(O)cc1
Outgoing: 14.56
